Experiment: AUC (0 to infinity) in female Balb/c mouse at 5 mg/kg, ip measured after 24 hrs by LC-MS/MS analysis
Type: ADME, organism-based
Details: in vivo
Property: AUC(0-inf)

QUERY: Fill in: AUC(0-inf) of `Cc1ccc2c(CN[C@H]3CC[C@@H](Nc4ncc(C(=O)NO)cn4)CC3)cn(C)c2c1.Cl` is ___
RESULT: 853 ng·h/mL

====

Test: Selectivity index, ratio of IC50 for human HepG2 cells to IC50 for erythrocytic stage of Plasmodium falciparum 3D7
Type: toxicity, cell-based
Conditions: read-out: Ratio IC50
Give selectivity ratio for every item shown.
One number for each entry.

Known results for compounds:
                               smiles_input           property  result_value
0  Cn1cc(CN[C@H]2CC[C@@H](Nc3ncc(C(=O)NO)cn3)CC2)c2ccc(Cl)cc21  selectivity ratio           146
1  Cn1cc(CN[C@H]2CC[C@@H](Nc3ncc(C(=O)NO)cn3)CC2)c2ccc(F)cc21  selectivity ratio           267
2  Cn1nc(CN[C@H]2CC[C@@H](Nc3ncc(C(=O)NO)cn3)CC2)c2ccccc21  selectivity ratio           212

For each of the items listed, what is its selectivity ratio?
1. Cn1cc(CN[C@H]2CC[C@@H](Nc3ncc(C(=O)NO)cn3)CC2)c2ccccc21
2. O=C(NO)c1cnc(N[C@H]2CC[C@@H](NCc3cc4ccccc4s3)CC2)nc1
3. O=C(NO)c1cnc(N[C@H]2CC[C@@H](NCc3cccnc3)CC2)nc1
4. O=C(NO)c1cnc(N[C@H]2CC[C@@H](NCC3CCCCC3)CC2)nc1
5. O=C(NO)c1cnc(N[C@H]2CC[C@@H](NCc3ccc4cc(F)ccc4n3)CC2)nc1
6. O=C(NO)c1cnc(N[C@H]2CC[C@@H](NCc3cc4ccccc4c4ccccc34)CC2)nc1

RESULT:
163
66
40
67
324
120
